TESTED_SYSTEM: Cyclin E1 (Homo sapiens, UniProt P24864+Q96SW2)
Sequence (P24864 whole entry): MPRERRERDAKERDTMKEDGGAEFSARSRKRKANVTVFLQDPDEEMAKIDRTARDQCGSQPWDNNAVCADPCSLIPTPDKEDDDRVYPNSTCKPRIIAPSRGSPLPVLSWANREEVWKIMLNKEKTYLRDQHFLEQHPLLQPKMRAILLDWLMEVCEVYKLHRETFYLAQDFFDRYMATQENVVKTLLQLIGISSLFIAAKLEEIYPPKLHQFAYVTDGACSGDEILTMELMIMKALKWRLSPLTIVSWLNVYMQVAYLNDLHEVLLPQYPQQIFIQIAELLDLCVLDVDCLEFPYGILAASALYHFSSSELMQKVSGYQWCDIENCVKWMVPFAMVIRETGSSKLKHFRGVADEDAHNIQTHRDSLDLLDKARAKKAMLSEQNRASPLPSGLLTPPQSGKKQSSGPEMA
Sequence (Q96SW2 whole entry): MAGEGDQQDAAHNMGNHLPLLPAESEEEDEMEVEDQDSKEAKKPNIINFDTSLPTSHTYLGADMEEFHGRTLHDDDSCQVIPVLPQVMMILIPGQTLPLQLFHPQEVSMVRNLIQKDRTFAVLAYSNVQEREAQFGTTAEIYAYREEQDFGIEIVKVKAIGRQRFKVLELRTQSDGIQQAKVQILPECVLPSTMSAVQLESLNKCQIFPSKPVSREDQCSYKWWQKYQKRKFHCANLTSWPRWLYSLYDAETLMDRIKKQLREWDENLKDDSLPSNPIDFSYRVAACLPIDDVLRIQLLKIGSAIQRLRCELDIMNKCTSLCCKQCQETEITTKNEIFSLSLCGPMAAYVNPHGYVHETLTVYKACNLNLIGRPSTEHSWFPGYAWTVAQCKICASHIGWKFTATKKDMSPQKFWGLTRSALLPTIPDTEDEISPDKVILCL
Sequence (Q16531 whole entry partner): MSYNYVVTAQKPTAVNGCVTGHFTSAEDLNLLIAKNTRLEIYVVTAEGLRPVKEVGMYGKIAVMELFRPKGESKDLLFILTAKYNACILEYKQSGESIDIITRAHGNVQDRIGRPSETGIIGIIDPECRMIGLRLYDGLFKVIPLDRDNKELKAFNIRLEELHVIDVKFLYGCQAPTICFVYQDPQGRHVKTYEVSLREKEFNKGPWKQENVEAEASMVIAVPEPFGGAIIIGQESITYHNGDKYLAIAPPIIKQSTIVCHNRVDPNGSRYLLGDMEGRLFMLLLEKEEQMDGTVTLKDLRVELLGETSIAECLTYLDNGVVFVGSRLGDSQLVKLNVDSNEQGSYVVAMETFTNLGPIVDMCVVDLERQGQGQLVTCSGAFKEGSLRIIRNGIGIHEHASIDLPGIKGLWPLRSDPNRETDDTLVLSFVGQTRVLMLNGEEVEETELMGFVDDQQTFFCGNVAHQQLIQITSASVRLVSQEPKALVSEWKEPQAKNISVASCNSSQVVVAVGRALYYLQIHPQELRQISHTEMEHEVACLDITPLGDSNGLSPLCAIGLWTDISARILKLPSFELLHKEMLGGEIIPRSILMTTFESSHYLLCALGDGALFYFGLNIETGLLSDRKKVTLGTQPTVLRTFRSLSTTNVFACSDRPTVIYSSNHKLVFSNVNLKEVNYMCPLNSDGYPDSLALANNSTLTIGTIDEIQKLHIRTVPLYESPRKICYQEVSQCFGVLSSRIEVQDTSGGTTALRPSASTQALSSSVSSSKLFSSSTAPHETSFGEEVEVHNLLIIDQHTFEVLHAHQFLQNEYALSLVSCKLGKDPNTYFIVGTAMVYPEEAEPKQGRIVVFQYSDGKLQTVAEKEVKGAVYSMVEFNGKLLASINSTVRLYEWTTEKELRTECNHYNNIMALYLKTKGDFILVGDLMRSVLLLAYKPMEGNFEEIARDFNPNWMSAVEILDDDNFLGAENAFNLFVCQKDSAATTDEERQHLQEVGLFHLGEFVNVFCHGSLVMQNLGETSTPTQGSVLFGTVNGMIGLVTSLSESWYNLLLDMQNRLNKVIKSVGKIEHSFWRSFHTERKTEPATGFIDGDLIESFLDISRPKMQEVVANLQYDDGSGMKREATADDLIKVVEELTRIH
ASSAY_DETAILS: Cyclin E1 Cellular Degradation Assay (MSD)
Assay type: cell-based
Set-up: endogenous in cells; host or cells: OVCAR3
ASSAY_CONDITIONS: Cyclin E1 cellular degradation
Reported values of log10(DC50) for individual entries
Answers are given as log10 of DC50 in nM.

Q: // fetch log10(DC50) given entry COc1c(COC(=O)Nc2ccc(N(C)c3cccc(F)c3)cc2)ccc2c1C(=O)N(C1CCC(=O)NC1=O)C2 (stereo not drawn)
Result: 2.55

---

Reported values of Dmax for individual entries
TESTED_SYSTEM: Cyclin E1 (Homo sapiens, UniProt P24864+Q96SW2)
ASSAY_DETAILS: Cyclin E1 Cellular Degradation Assay (MSD)
Type: cell-based
Design: endogenous in cells; host or cells: OVCAR3
ASSAY_CONDITIONS: Cyclin E1 cellular degradation, maximum degradation
All answers are understood in %, so give the number only.

[[record]]
molecule = "O=C1CCC(N2Cc3ccc(COC(=O)Nc4ccc(Oc5ccccc5)cc4)c(O[C@@H]4CCCOC4)c3C2=O)C(=O)N1 (some centres unmarked)"
observed_measurement = 108

[[record]]
molecule = "COc1c(COC(=O)Nc2ccc(Oc3cc(F)c(F)cc3F)cc2F)ccc2c1C(=O)N(C1CCC(=O)NC1=O)C2 (centres unmarked)"
observed_measurement = 111

[[record]]
molecule = "O=C1CCC(N2Cc3ccc(COC(=O)Nc4ccc(Oc5cccc(F)c5F)cc4)c(O[C@@H]4CCOC4)c3C2=O)C(=O)N1 (some centres unmarked)"
observed_measurement = 103

[[record]]
molecule = "O=C1CCC(N2Cc3ccc(COC(=O)Nc4ccc(Oc5ccc(F)cc5)cc4F)c(O[C@@H]4CCCOC4)c3C2=O)C(=O)N1 (some centres unmarked)"
observed_measurement = 110

[[record]]
molecule = "COc1c(COC(=O)Nc2ccc(Oc3cc(F)c(F)c(F)c3)cc2Cl)ccc2c1C(=O)N(C1CCC(=O)NC1=O)C2 (centres unmarked)"
observed_measurement = 107

[[record]]
molecule = "O=C1CCC(N2Cc3ccc(COC(=O)Nc4ccc(Oc5ccc(F)c(F)c5)cc4)c(O[C@@H]4CCOC4)c3C2=O)C(=O)N1 (some centres unmarked)"
observed_measurement = 107

[[record]]
molecule = "COc1c(COC(=O)Nc2ccc(Cc3ccc(F)c(F)c3)cc2)ccc2c1C(=O)N(C1CCC(=O)NC1=O)C2 (centres unmarked)"
observed_measurement = 99

[[record]]
molecule = "COc1c(COC(=O)Nc2ccc(Oc3ccc4sccc4c3)cc2)ccc2c1C(=O)N(C1CCC(=O)NC1=O)C2 (centres unmarked)"
observed_measurement = 106


Q: // fetch Dmax given entry COc1c(COC(=O)Nc2ccc(Oc3cccc(Br)c3)cc2)ccc2c1C(=O)N(C1CCC(=O)NC1=O)C2 (centres unmarked)
Result: 106

Q: // fetch Dmax given entry CC(C)COc1c(COC(=O)Nc2ccc(Oc3ccc(F)c(F)c3)cc2)ccc2c1C(=O)N(C1CCC(=O)NC1=O)C2 (centres unmarked)
Result: 108

Q: // fetch Dmax given entry COc1c(COC(=O)Nc2ccc(Oc3ccc(F)cc3Cl)cc2F)ccc2c1C(=O)N(C1CCC(=O)NC1=O)C2 (centres unmarked)
Result: 107

Q: // fetch Dmax given entry COc1cc(Oc2ccccc2)ccc1NC(=O)OCc1ccc2c(c1OC)C(=O)N(C1CCC(=O)NC1=O)C2 (centres unmarked)
Result: 103

Q: // fetch Dmax given entry CC(C)(O)COc1c(COC(=O)Nc2ccc(Oc3cc(F)cc(F)c3)cc2F)ccc2c1C(=O)N(C1CCC(=O)NC1=O)C2 (centres unmarked)
Result: 118

Q: // fetch Dmax given entry COc1c(COC(=O)Nc2ccc(Oc3cccc(Cl)c3Cl)cc2F)ccc2c1C(=O)N(C1CCC(=O)NC1=O)C2 (centres unmarked)
Result: 110
